Tested on: FXR:RXRa (NR concentration 270 nM, RXRa partner concentration 90 nM)
Assay: PBM binding z-score (relative to random genomic background probes); higher = stronger binding; sequences stand for … in GC…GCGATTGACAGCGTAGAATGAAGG
# cutoff 4 applies to PBM binding z-score; >= gives y, < gives n

Example entries begin here.
CCTAGCAGGCGAATCTGGGTCACTCAAGGCTTGA :: n
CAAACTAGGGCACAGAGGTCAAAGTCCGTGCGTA :: y
GCTTACGGGTCAAAGGTTATATCATGAATAGAAT :: y
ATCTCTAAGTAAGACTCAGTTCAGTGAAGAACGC :: n
CAGGCTAGGTCAGGGCCAGTATAGGAGGAACGTT :: n

Prompt line: # bool: PBM binding z-score of "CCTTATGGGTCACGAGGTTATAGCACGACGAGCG" >= 4
Response line: y

---

Measured PBM binding z-score values are reported for all entries that follow.
System: PPARg:RXRa IVT, anti-PPARg (NR concentration 270 nM, RXRa partner concentration 90 nM)
Assay: PBM binding z-score (relative to random genomic background probes); higher = stronger binding; sequences stand for … in GC…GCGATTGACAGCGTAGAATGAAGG
Kindly provide the number alone.

Below, 2 sequences whose answers are already recorded.
TGTCAAAGTTCAAAGGTAAAGTAAGTATCCACAC :: 4.58
TCTGCTAGGTCAGTTGGTCAGCGAACGAGCTGCC :: 3.21

Prompt line: GET /values?readout=PBM binding z-score&item= "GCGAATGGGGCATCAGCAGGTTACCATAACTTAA"
Response line: 0.63

---

Tested on: RARb:RXRa (NR concentration 270 nM, RXRa partner concentration 90 nM)
Experiment: PBM binding z-score (relative to random genomic background probes); higher = stronger binding; sequences stand for … in GC…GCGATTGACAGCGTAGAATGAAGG
# cutoff 4 applies to PBM binding z-score; >= gives fulfilled, < gives not fulfilled

Example entries begin here.
TCATATAGGTAATTGCTAGGTGAAAGTCCGATCT :: not fulfilled
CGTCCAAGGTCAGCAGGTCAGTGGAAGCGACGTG :: fulfilled

Prompt line: # bool: PBM binding z-score of "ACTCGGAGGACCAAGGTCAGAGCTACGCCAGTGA" >= 4
Response line: not fulfilled

Prompt line: # bool: PBM binding z-score of "TCTTGTTGGTCAAAGGTCACACACTCGAAATGCG" >= 4
Response line: fulfilled

Prompt line: # bool: PBM binding z-score of "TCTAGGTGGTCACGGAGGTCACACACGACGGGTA" >= 4
Response line: not fulfilled

Prompt line: # bool: PBM binding z-score of "GGGACTGGGGCATCAGCAGGTTACCATAACTTAA" >= 4
Response line: not fulfilled

---

Measured PBM binding z-score values are reported for all entries that follow.
Tested on: THRa:RXRa (NR concentration 90 nM, RXRa partner concentration 90 nM)
Experiment: PBM binding z-score (relative to random genomic background probes); higher = stronger binding; sequences stand for … in GC…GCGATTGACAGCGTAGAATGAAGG
Kindly provide the number alone.

CTCGAAAGGTCGGATGAGGTGAGTATACGGATAA :: 5.16

Prompt line: GET /values?readout=PBM binding z-score&item= "CGAACTAGGCCAGAACAGGACAGTGAAGGATGAT"
Response line: 0.634

Prompt line: GET /values?readout=PBM binding z-score&item= "CCGACTGGGGCAGAAAGGTTACCAGACCATCCGG"
Response line: 0.99

Prompt line: GET /values?readout=PBM binding z-score&item= "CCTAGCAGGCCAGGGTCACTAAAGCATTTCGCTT"
Response line: 2.67

Prompt line: GET /values?readout=PBM binding z-score&item= "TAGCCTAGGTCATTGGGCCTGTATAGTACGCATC"
Response line: 2.74

Prompt line: GET /values?readout=PBM binding z-score&item= "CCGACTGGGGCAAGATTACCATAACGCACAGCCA"
Response line: -0.474
